Data credit: ChEMBL document CHEMBL4804281

target: Serine/threonine-protein kinase 4 (Homo sapiens) (UniProt Q13043); assay: Inhibition of STK4 (unknown origin) using fluorescein-labelled Ser/Thr-07 peptide as substrate incubated for 1 hr in presence of ATP at Km concentration by Z-LYTE assay
Sequence (Q13043 whole entry): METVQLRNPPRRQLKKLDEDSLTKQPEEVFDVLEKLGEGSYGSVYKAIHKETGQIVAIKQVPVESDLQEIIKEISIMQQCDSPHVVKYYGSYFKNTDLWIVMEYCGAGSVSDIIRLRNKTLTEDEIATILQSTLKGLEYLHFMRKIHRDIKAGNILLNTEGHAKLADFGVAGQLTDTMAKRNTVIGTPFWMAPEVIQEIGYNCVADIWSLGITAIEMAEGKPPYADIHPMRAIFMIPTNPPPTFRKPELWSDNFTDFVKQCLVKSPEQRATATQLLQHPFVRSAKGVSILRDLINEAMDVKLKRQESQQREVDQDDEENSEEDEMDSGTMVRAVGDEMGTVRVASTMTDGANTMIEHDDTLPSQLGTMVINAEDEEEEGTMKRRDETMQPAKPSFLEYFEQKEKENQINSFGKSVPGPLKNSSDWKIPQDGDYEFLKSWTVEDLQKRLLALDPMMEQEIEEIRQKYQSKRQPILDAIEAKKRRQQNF
quantity_name: pIC50
// field semantics: pIC50 = negative decimal log of concentration (mol/L)

I'd like to know its pIC50. The compound in question is `Nc1ncc(-c2cc([N+](=O)[O-])cnc2F)cc1-c1ccc2c(c1)CCNC2=O`
6.70

Field entry: `Cn1cnc2c(-c3cnc(N)c(-c4ccc5c(c4)CCNC5=O)c3)cccc21`
7.40

Field entry: `Nc1ncc(-c2ccc3ncsc3c2)cc1-c1ccc2c(c1)CCNC2=O`
7.40

----------
target: Serine/threonine-protein kinase 4 (Homo sapiens); assay: Inhibition of STK4 (unknown origin) using fluorescein-labelled Ser/Thr-07 peptide as substrate incubated for 1 hr in presence of ATP at Km concentration by Z-LYTE assay
pIC50: −log10 of the molar value.
quantity_name: pIC50

I'd like to know its pIC50. The molecule in question is `CN(C1CC1)S(=O)(=O)c1ccc(-c2cnc(N)c(-c3ccc4c(c3)CCNC4=O)c2)c(F)c1`
> 7.40

Field entry: `COc1ccncc1-c1cnc(N)c(-c2ccc3c(c2)CCNC3=O)c1`
< 6.05

Field entry: `CC(C)Oc1cc(NS(=O)(=O)C2CC2)ccc1-c1cnc(N)c(-c2ccc3c(c2)CCNC3=O)c1`
> 7.40
